# Study target: P2RY12 (Homo sapiens, UniProt Q9H244)
# Construct: purchased Promega (in-house HiBiT-GPCR construct library, NanoBRET)
# Sequence (Q9H244 whole entry, one chain of several): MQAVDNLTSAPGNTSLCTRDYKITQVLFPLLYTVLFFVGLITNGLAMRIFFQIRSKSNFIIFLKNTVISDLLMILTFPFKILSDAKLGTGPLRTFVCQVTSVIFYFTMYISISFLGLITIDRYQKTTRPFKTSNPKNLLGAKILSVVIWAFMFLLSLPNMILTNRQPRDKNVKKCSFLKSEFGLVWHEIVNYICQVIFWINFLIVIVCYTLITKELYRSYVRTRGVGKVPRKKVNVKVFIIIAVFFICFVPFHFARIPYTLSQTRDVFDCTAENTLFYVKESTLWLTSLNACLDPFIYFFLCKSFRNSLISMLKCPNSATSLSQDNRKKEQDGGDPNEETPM
# Method summary: NanoBRET screen HiBiT-P2RY12 in HEK293
# Assay type: binding
# Recorded conditions: P2RY12; tracer 1μM
Measured endpoint: NanoBRET Fold Response
// print number alone

The molecule listed as Cc1nc2n(c(=O)c1CCN1CCC(c3noc4cc(F)ccc34)CC1)CCCC2OC(=O)NCCOCCOCCOCCOCCNC(=O)CCc1ccc2n1[B-](F)(F)[N+]1=C(c3ccc[nH]3)C=CC1=C2 (stereo not shown) [Risperidone-2-NB590] has a reported NanoBRET Fold Response of 0.95

Reported NanoBRET Fold Response of CC(C)N(CC[C@H](c1ccccc1)c1cc(CCNC(=O)CCOCCOCCOCCOCCNC(=O)CCc2ccc3n2[B-](F)(F)[N+]2=C(c4ccc[nH]4)C=CC2=C3)ccc1O)C(C)C [Tolterodine-2-NB590] : 0.95

The molecule identified as O=C(CCOCCOCCOCCOCCNC(=O)CCc1ccc2n1[B-](F)(F)[N+]1=C(c3ccc[nH]3)C=CC1=C2)NCCCN1CCN(C2=Nc3ccccc3Oc3ccc(Cl)cc32)CC1 [Loxapine-a-2-NB590] registered its NanoBRET Fold Response at 0.84

// NanoBRET Fold Response lookup, molecule = COc1ccccc1N1CCN(CCCCN2C(=O)c3ccc(CNC(=O)CCOCCNC(=O)c4ccc(CNC(=O)CCc5ccc6n5[B-](F)(F)[N+]5=C(c7ccc[nH]7)C=CC5=C6)cc4)cc3C2=O)CC1 [NAN-190-3-NB590] , result: 1.10

Entry N#CN=C(NCCCOc1cccc(CN2CCCCC2)c1)NCCNC(=O)CCOCCOCCOCCOCCNC(=O)CCc1ccc2n1[B-](F)(F)[N+]1=C(c3ccc[nH]3)C=CC1=C2 [Aminopotentidine-2-NB590] , NanoBRET Fold Response reported as 0.99

Reported NanoBRET Fold Response of CCCn1c(=O)c2[nH]c(-c3ccc(OCC(=O)NCCNC(=O)CCOCCNC(=O)c4ccc(CNC(=O)CCc5ccc6n5[B-](F)(F)[N+]5=C(c7ccc[nH]7)C=CC5=C6)cc4)cc3)nc2n(CCC)c1=O [XAC-3-NB590] : 1.04

Per the records, this molecule ( Cc1cc2c(s1)Nc1ccccc1N=C2N1CCN(CCCNC(=O)CCOCCOCCOCCOCCNC(=O)CCc2ccc3n2[B-](F)(F)[N+]2=C(c4ccc[nH]4)C=CC2=C3)CC1 [Olanzapine-a-2-NB590] ) has NanoBRET Fold Response equal to 0.97

CC(C)N(CC[C@H](c1ccccc1)c1cc(CCNC(=O)c2ccc(CNC(=O)CCc3ccc4n3[B-](F)(F)[N+]3=C(c5ccc[nH]5)C=CC3=C4)cc2)ccc1O)C(C)C [Tolterodine-BZ-NB590] has a reported NanoBRET Fold Response of 0.91

The molecule listed as O=C(CCc1ccc2n1[B-](F)(F)[N+]1=C(c3ccc[nH]3)C=CC1=C2)NCc1ccc(C(=O)NCCOCCC(=O)N[C@@H]2CC[C@@]3(O)[C@H]4Cc5ccc(O)c6c5[C@@]3(CCN4CC3CC3)[C@H]2O6)cc1 [Naltrexone-3-NB590] has a reported NanoBRET Fold Response of 0.88

Memo: O=C(CCc1ccc2n1[B-](F)(F)[N+]1=C(c3ccc[nH]3)C=CC1=C2)NCCOCCOCCNC(=O)OCCOCCN1CCN(C2=Nc3ccccc3Sc3ccccc32)CC1 [Quetiapine-a-2-NB590] , reported NanoBRET Fold Response: 0.92

src = paper PMC8151276
